Taken from patent EP0908457B1.

test system: Monochoria vaginalis, Presl.; assay: Preemergence weed control under flooded paddy conditions, MOOVA (Monochoria); assay type: in vivo; details: Rate 0.0620 kg/ha; preemergence, flooded paddy; rated three to four weeks after treatment; further: meaning of each grade not given here
Each record here notes measured herbicidal effect rating, MOOVA.

compound	herbicidal effect rating, MOOVA
CCS(=O)(=O)NC(=O)C(C)Oc1ccc(C)cc1-c1nsc2ccc(-n3c(=O)cc(C(F)(F)F)n(C)c3=O)cc12 (stereo not shown)	6.0
Cn1c(C(F)(F)F)cc(=O)n(-c2ccc3snc(COC(=O)Cc4ccc(Cl)cc4Cl)c3c2)c1=O	7.0
Cn1c(C(F)(F)F)cc(=O)n(-c2ccc3snc(C(C#N)=Cc4ccccn4)c3c2)c1=O	9.0
Cn1c(C(F)(F)F)cc(=O)n(-c2cc3c(CBr)nsc3cc2F)c1=O	9.0
Cn1c(C(F)(F)F)cc(=O)n(-c2ccc3snc(C(=O)NS(=O)(=O)c4ccc(Cl)cc4)c3c2)c1=O	9.0
Cn1c(C(F)(F)F)cc(=O)n(-c2ccc3snc(COCc4ccc([N+](=O)[O-])cc4)c3c2)c1=O	8.0
CC(C)C=C(C#N)c1nsc2ccc(-n3c(=O)cc(C(F)(F)F)n(C)c3=O)cc12	9.0
CC(=O)NCCOC(=O)c1nsc2ccc(-n3c(=O)cc(C(F)(F)F)n(C)c3=O)cc12	9.0
CC(c1nsc2ccc(-n3c(=O)cc(C(F)(F)F)n(C)c3=O)cc12)S(C)(=O)=O (stereo not shown)	7.0
Cn1c(C(F)(F)F)cc(=O)n(-c2ccc3snc(COS(=O)(=O)c4ccccc4)c3c2)c1=O	9.0
Cc1ccc(S(=O)(=O)NC(=O)c2nsc3ccc(-n4c(=O)cc(C(F)(F)F)n(C)c4=O)cc23)cc1	6.5
Cn1c(C(F)(F)F)cc(=O)n(-c2ccc3snc(C(C#N)=Cc4cc5ccccc5[nH]4)c3c2)c1=O	7.0
CCCCS(=O)(=O)OCc1nsc2ccc(-n3c(=O)cc(C(F)(F)F)n(C)c3=O)cc12	7.0

* * *

The following compounds are shown together with reported herbicidal effect rating, ORYSAT (rice tolerance) values.
tested on: Oryza sativa, (L.) Tebonnet; test: Rice tolerance to post-transplant applications under flooded paddy conditions (Example 187), ORYSAT (Rice, Tebonnet); settings: 0.1250 kg/ha, rated three to four weeks after treatment
measured_quantity: herbicidal effect rating, ORYSAT (rice tolerance)

compound	value_measured
C=CCOc1ccc(C)cc1-c1nsc2ccc(-n3c(=O)cc(C(F)(F)F)n(C)c3=O)cc12	0.0
C#CCNC(=O)COc1ccc(C)cc1-c1noc2ccc(-n3c(=O)cc(C(F)(F)F)n(C)c3=O)cc12	0.0
C=CCOCc1nsc2ccc(-n3c(=O)cc(C(F)(F)F)n(C)c3=O)cc12	8.0
Cn1c(C(F)(F)F)cc(=O)n(-c2ccc3snc(COC(=O)c4ccccc4)c3c2)c1=O	3.0
Cc1ccc(S(=O)(=O)NC(=O)COc2ccc(C)cc2-c2nsc3ccc(-n4c(=O)cc(C(F)(F)F)n(C)c4=O)cc23)cc1	4.0
COC(=O)C(C)Oc1ccc(C)cc1-c1nsc2ccc(-n3c(=S)cc(C(F)(F)F)n(C)c3=O)cc12 (stereo not shown)	3.0
C=CCOC(=O)COc1ccc(C)cc1-c1nsc2ccc(-n3c(=O)cc(C(F)(F)F)n(C)c3=O)cc12	6.5
COC(=O)COc1noc2ccc(-n3c(=O)cc(C(F)(F)F)n(C)c3=O)cc12	2.5
Cn1c(C(F)(F)F)cc(=O)n(-c2ccc3snc(C(Cl)Cl)c3c2)c1=O	7.0
Cc1ccc(OC(C)C)c(-c2nsc3ccc(-n4c(=O)cc(C(F)(F)F)n(C)c4=O)cc23)c1	4.0
COC(=O)C(C)Oc1c(C)cc(C)cc1-c1nsc2ccc(-n3c(=O)cc(C(F)(F)F)n(C)c3=O)cc12 (stereo not shown)	5.0
COc1cc(C)ccc1-c1nsc2ccc(-n3c(=O)cc(C(F)(F)F)n(C)c3=O)cc12	7.0
CCc1ccc(OC)c(-c2nsc3ccc(-n4c(=O)cc(C(F)(F)F)n(C)c4=O)cc23)c1	3.0
Cn1c(C(F)(F)F)cc(=O)n(-c2ccc3snc(Cl)c3c2)c1=O	1.0
Cn1c(C(F)(F)F)cc(=O)n(-c2ccc3snc(N4CCOCC4)c3c2)c1=O	0.0
COc1cc(C)c(C)c(C)c1-c1nsc2ccc(-n3c(=O)cc(C(F)(F)F)n(C)c3=O)cc12	0.0

* * *

system: Monochoria vaginalis, Presl.; experiment: Preemergence weed control under flooded paddy conditions, MOOVA (Monochoria); type: in vivo; conditions: Rate 0.0620 kg/ha; preemergence, flooded paddy; rated 3-4 weeks after treatment; further: meaning of each grade not given here

molecule	herbicidal effect rating, MOOVA
Cc1ccc(OC(C)C(=O)c2ccc(C)c(C)c2)c(-c2nsc3ccc(-n4c(=O)cc(C(F)(F)F)n(C)c4=O)cc23)c1 (centres unmarked)	9.0
CCCCCCCCCOC(=O)COc1ccc(C)cc1-c1nsc2ccc(-n3c(=O)cc(C(F)(F)F)n(C)c3=O)cc12	9.0
Cn1c(C(F)(F)F)cc(=O)n(-c2ccc3snc(-c4ccccc4OCC(N)=O)c3c2)c1=O [Example 548]	9.0
COCCCOCCCOC(=O)COc1ccc(C)cc1-c1nsc2ccc(-n3c(=O)cc(C(F)(F)F)n(C)c3=O)cc12	9.0
Cn1c(C(F)(F)F)cc(=O)n(-c2ccc3snc(-c4ccccc4OCC(N)=O)c3c2)c1=O [Example 563]	9.0
Cc1ccc(OCC(=O)c2ccccc2)c(-c2nsc3ccc(-n4c(=O)cc(C(F)(F)F)n(C)c4=O)cc23)c1	9.0
CC(C)S(=O)(=O)NC(=O)COc1ccccc1-c1nsc2ccc(-n3c(=O)cc(C(F)(F)F)n(C)c3=O)cc12	9.0
Cc1ccc(OCC(=O)OCC2CCOC2)c(-c2nsc3ccc(-n4c(=O)cc(C(F)(F)F)n(C)c4=O)cc23)c1 (racemic)	9.0
Cc1ccc(OCC(=O)c2ccc(OC(F)F)cc2)c(-c2nsc3ccc(-n4c(=O)cc(C(F)(F)F)n(C)c4=O)cc23)c1	9.0
CSCCCCOC(=O)COc1ccc(C)cc1-c1nsc2ccc(-n3c(=O)cc(C(F)(F)F)n(C)c3=O)cc12	7.0
Cc1ccc(OC(C)(C)C(=O)OC(C)C)c(-c2nsc3ccc(-n4c(=O)cc(C(F)(F)F)n(C)c4=O)cc23)c1	9.0
Cn1c(C(F)(F)F)cc(=O)n(-c2ccc3snc(/C=C/C(=O)c4ccccc4)c3c2)c1=O	9.0
CCOC(=O)C1CCC(OC(=O)COc2ccc(C)cc2-c2nsc3ccc(-n4c(=O)cc(C(F)(F)F)n(C)c4=O)cc23)CC1 (single isomer, unassigned; isomer a)	9.0
Cc1ccc(OC(C)(C)C(=O)OCC(F)(F)F)c(-c2nsc3ccc(-n4c(=O)cc(C(F)(F)F)n(C)c4=O)cc23)c1	7.0

* * *

tested on: Cyperus iria; assay: Preemergence weed control under flooded paddy conditions, CYPIR (Rice Flatsedge); assay type: in vivo; settings: Rate 0.0320 kg/ha; preemergence, flooded paddy; rated three to four weeks after treatment; on herbicidal effect rating, CYPIR: meaning of each grade not given here
measured_quantity: herbicidal effect rating, CYPIR

compound	measured_quantity	value_measured
Cn1c(C(F)(F)F)cc(=O)n(-c2ccc3snc(COS(=O)(=O)c4ccccc4)c3c2)c1=O [Example 382]	herbicidal effect rating, CYPIR	5.0
Cn1c(C(F)(F)F)cc(=O)n(-c2cc3c(C(Br)Br)nsc3cc2F)c1=O [Example 372]	herbicidal effect rating, CYPIR	8.5
Cn1c(C(F)(F)F)cc(=O)n(-c2cc3c(CBr)nsc3cc2F)c1=O [Example 376]	herbicidal effect rating, CYPIR	3.0
C=CCC(c1nsc2ccc(-n3c(=O)cc(C(F)(F)F)n(C)c3=O)cc12)S(C)(=O)=O (stereo not shown) [Example 602]	herbicidal effect rating, CYPIR	3.0

* * *

system: Cyperus iria; assay: Preemergence weed control under flooded paddy conditions, CYPIR (Rice Flatsedge); format: in vivo; conditions: 0.1250 kg/ha; preemergence weeds, flooded paddy; herbicidal effect rating 0-9, three to four weeks after treatment
measured_quantity: CYPIR

compound	value_measured
COc1ccc(C)cc1-c1nsc2cc(Cl)c(-n3c(=O)cc(C(F)(F)F)n(C)c3=O)cc12	8.7
CCCCC(=O)c1nsc2ccc(-n3c(=O)cc(C(F)(F)F)n(C)c3=O)cc12	9.0
CC(=O)OCCSC(SCCOC(C)=O)c1nsc2ccc(-n3c(=O)cc(C(F)(F)F)n(C)c3=O)cc12	0.0
Cc1ccc(OCC(=O)NS(C)(=O)=O)c(-c2noc3cc(F)c(-n4c(=O)cc(C(F)(F)F)n(C)c4=O)cc23)c1	4.0
CCOC(=O)c1nsc2cc(F)c(-n3c(=O)cc(C(F)(F)F)n(C)c3=O)cc12	9.0
COC(=O)COc1cc2c(cc1-c1nsc3ccc(-n4c(=O)cc(C(F)(F)F)n(C)c4=O)cc13)CCC2	7.0
Cn1c(C(F)(F)F)cc(=O)n(-c2ccc3snc(C(C#N)=CC4CC4)c3c2)c1=O	7.0
CCOCOCc1nsc2ccc(-n3c(=O)cc(C(F)(F)F)n(C)c3=O)cc12	9.0
Cn1c(C(F)(F)F)cc(=O)n(-c2ccc3snc(COC4CCCCO4)c3c2)c1=O (stereo not drawn)	6.0
COC(=O)COc1ccc(I)cc1-c1nsc2ccc(-n3c(=O)cc(C(F)(F)F)n(C)c3=O)cc12	4.0
CCOCN(C(=O)c1nsc2ccc(-n3c(=O)cc(C(F)(F)F)n(C)c3=O)cc12)S(=O)(=O)Cc1ccccc1	9.0
Cn1c(C(F)(F)F)cc(=O)n(-c2ccc3snc(C(=O)c4ccccc4)c3c2)c1=O	8.0
CCC(C#N)c1nsc2ccc(-n3c(=O)cc(C(F)(F)F)n(C)c3=O)cc12 (stereo not drawn)	9.0
Cn1c(C(F)(F)F)cc(=O)n(-c2ccc3snc(C(=O)SCc4ccccc4)c3c2)c1=O	8.0
Cn1c(C(F)(F)F)cc(=O)n(-c2ccc3snc(C(=O)NS(=O)(=O)Cc4ccc(OC(F)(F)F)cc4)c3c2)c1=O	4.0
